# tested-system: rhuman cathepsin K (Homo sapiens)
# Sequence (P43235 115-329): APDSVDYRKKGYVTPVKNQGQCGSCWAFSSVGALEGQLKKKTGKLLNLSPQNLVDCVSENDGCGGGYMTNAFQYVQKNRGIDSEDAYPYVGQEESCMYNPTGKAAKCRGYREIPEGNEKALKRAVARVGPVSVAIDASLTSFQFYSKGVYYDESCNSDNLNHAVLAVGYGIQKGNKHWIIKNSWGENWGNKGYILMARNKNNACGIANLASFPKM
# protocol-notes: Assay for identification of Cathepsin K inhibitors (QFRET, cleavage of Z-Phe-Arg-AMC)
# Format: biochemical
# stated-conditions: 0.5 nM rhuman cathepsin K, Z-Phe-Arg-AMC substrate, 30 min pre-incubation, 1 h incubation at room temperature; mean of two separate occasions; read-out: CatK FRET Mean pIC50 (converted)
parameter-measured: IC50 (nM)

{"columns": ["molecule", "tested-system", "IC50 / nM"],
 "data": [
  ["N#CC1(NC(=O)[C@@H]2CCCC[C@H]2C(=O)N2CCc3[nH]c4ncccc4c3C2)CC1 [Example 14]", "rhuman cathepsin K (Homo sapiens)", 1.07],
  ["CCCOc1cccc2c3c([nH]c12)CCN(C(=O)[C@@H]1CCCC[C@H]1C(=O)NC1(C#N)CC1)C3 [Example 34]", "rhuman cathepsin K (Homo sapiens)", 0.486],
  ["N#CC1(NC(=O)[C@@H]2CCCC[C@H]2C(=O)N2CCc3oc4ccccc4c3C2)CC1 [Example 23]", "rhuman cathepsin K (Homo sapiens)", 2.24],
  ["N#CC1(NC(=O)[C@@H]2CCCC[C@H]2C(=O)N2CCc3[nH]c4ccc(C(F)(F)F)cc4c3C2)CC1 [Example 7]", "rhuman cathepsin K (Homo sapiens)", 42.1]
]}

A. CS(=O)(=O)c1ccc2[nH]c3c(c2c1)CN(C(=O)[C@@H]1CCCC[C@H]1C(=O)NC1(C#N)CC1)CC3 [Example 16]
B. CN(C)CCOc1cccc2c3c([nH]c12)CCN(C(=O)[C@@H]1CCCC[C@H]1C(=O)NC1(C#N)CC1)C3 [Example 36]
C. N#CC1(NC(=O)[C@@H]2CCCC[C@H]2C(=O)N2CCc3[nH]c4c(OCCN5CCCCC5)cccc4c3C2)CC1 [Example 39]
Exam item: Form: Sort by [IC50] Order [ ascending ] Sort the labels as requested; that list is your answer.
Marked response: B, C, A

---

# tested-system: rhuman cathepsin K (Homo sapiens)
# protocol-notes: Assay for identification of Cathepsin K inhibitors (QFRET, cleavage of Z-Phe-Arg-AMC)
# Type: biochemical
# stated-conditions: 0.5 nM rhuman cathepsin K, Z-Phe-Arg-AMC substrate, 30 min pre-incubation, 1 h incubation at room temperature; mean of two separate occasions; read-out: CatK FRET Mean pIC50 (converted)
parameter-measured: IC50 (nM)

Here's what some known entries look like.
{"columns": ["compound", "tested-system", "IC50, nM"],
 "data": [
  ["Cn1c2c(c3cc(F)ccc31)CN(C(=O)[C@@H]1CCCC[C@H]1C(=O)NC1(C#N)CC1)CC2 [Example 12]", "rhuman cathepsin K (Homo sapiens)", 2.84],
  ["N#CC1(NC(=O)[C@@H]2CCCC[C@H]2C(=O)N2CCc3oc4ncccc4c3C2)CC1 [Example 41]", "rhuman cathepsin K (Homo sapiens)", 6.44],
  ["CSc1cccc2c3c([nH]c12)CCN(C(=O)[C@@H]1CCCC[C@H]1C(=O)NC1(C#N)CC1)C3 [Example 22]", "rhuman cathepsin K (Homo sapiens)", 4.32],
  ["CCOc1cccc2c3c([nH]c12)CCN(C(=O)[C@@H]1CCCC[C@H]1C(=O)NC1(C#N)CC1)C3 [Example 25]", "rhuman cathepsin K (Homo sapiens)", 0.899],
  ["N#CCOc1cccc2c3c([nH]c12)CCN(C(=O)[C@@H]1CCCC[C@H]1C(=O)NC1(C#N)CC1)C3 [Example 35]", "rhuman cathepsin K (Homo sapiens)", 0.558]
]}

1. CN(C)Cc1ccc2[nH]c3c(c2c1)CN(C(=O)[C@@H]1CCCC[C@H]1C(=O)NC1(C#N)CC1)CC3 [Example 15]
2. N#CC1(NC(=O)[C@@H]2CCCC[C@H]2C(=O)N2CCc3[nH]c4ccccc4c3C2)CC1 [Example 4]
Exam item: Lab note: check whether 1 or 2 has the lower measured IC50. Returns: label corresponding to the selected item.
Marked response: 2
